Please go through the items and note down their Kd.
- assayed target: T1, hen egg white lysozyme (Gallus gallus (hen egg white), UniProt P00698)
- T1 construct: hen egg white lysozyme (HEWL), 14.5 kDa, monomeric; The source is named for ITC (Roche powder); also called HEWL; source: bought: Roche (HEWL lysozyme powder, > 95%)
- T1 sequence (P00698 19-147): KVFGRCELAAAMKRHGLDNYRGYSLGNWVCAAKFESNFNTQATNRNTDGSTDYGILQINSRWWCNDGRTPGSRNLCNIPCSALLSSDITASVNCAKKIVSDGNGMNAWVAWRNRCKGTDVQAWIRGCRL
- assay remarks: ITC; Malvern PEAQ-ITC; 20 °C; PBS pH 7.4 with 0.005% tween 20; lysozyme in the cell and nanobody titrated (so in the source); nanobody 20 or 30 µM, lysozyme 200 or 300 µM; single site model
- details: both partners purified
Numeric only. Scale: nM

So what does the record say about Kd for Phage-B09 nanobody (VHH, selected by phage display from the NaLi-H1 synthetic library (Hybrigenics); also called P-B09; source: E. coli T7-Express, purified (IMAC, Superdex-75)) VHH: EVQLQASGGGFVQPGGSLRLSCAASGSTYRRSTMGWFRQAPGKEREFVSAISSDHSHPDYYADSVKGRFTISRDNSKNTVYLQMNSLRAEDTATYYCAFQYDSDKKSYWGQGTQVTVSS ?
1430

Please do the same for Cab-Lys3 T101S nanobody (VHH, as the chain of m6 (Cab-Lys3) with T101S in CDR3; source: E. coli T7-Express, purified (IMAC, Superdex-75)) VHH: DVQLQASGGGSVQAGGSLRLSCAASGYTIGPYCMGWFRQAPGKEREGVAAINMGGGITYYADSVKGRFTISQDNAKNTVYLLMNSLEPEDTAIYYCAADSSIYASYYECGHGLSTGGYGYDSWGQGTQVTVSS as well.
113

Please do the same for Cab-Lys3 S105N nanobody (VHH, as the chain of m6 (Cab-Lys3) with S105N in CDR3; source: E. coli T7-Express, purified (IMAC, Superdex-75)) VHH: DVQLQASGGGSVQAGGSLRLSCAASGYTIGPYCMGWFRQAPGKEREGVAAINMGGGITYYADSVKGRFTISQDNAKNTVYLLMNSLEPEDTAIYYCAADSTIYANYYECGHGLSTGGYGYDSWGQGTQVTVSS as well.
125

Please do the same for H04 nanobody (VHH, crystal structure with lysozyme PDB 4U3X (Rouet et al. 2015); CDR3 of 12 residues; Developed in Daniel Christ's group (Rouet et al. 2015); source: E. coli T7-Express, purified (IMAC, Superdex-75)) VHH: EVQLLESGGGLVQPGGSLRLSCAASGFRFDAEDMGWVRQAPGKGLEWVSSIYGPSGSTYYADSVKGRFTISRDNSKNTLYLQMNSLRAEDTAVYYCAKYTSPPQNHGFDYWGQGTLVTVSS as well.
24
